system tested: 1-deoxy-D-xylulose 5-phosphate reductoisomerase (Mycobacterium tuberculosis, UniProt P9WNS1)
Sequence (P9WNS1 whole entry): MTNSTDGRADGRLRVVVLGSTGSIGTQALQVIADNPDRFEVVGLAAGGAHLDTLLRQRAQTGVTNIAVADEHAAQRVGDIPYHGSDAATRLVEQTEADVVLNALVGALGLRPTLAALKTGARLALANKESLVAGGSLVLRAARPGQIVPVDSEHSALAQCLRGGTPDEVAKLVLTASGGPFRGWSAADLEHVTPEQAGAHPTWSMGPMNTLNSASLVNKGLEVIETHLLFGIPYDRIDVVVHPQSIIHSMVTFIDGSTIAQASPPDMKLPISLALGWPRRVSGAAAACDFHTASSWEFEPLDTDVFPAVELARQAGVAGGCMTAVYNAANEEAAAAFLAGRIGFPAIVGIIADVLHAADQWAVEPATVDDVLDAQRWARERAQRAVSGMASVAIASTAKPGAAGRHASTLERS
test details: Inhibition of Mycobacterium tuberculosis IspC by photometric assay
Label t when IC50 < 300 nM; otherwise f.

Study these solved cases before continuing.
CN(O)C(=O)CCC(c1ccccc1)P(=O)(O)O (configuration not stated): f
CN(O)C(=O)CSC(c1ccccc1)P(=O)(O)O (racemic): t
Cc1ccc(C(OCC(=O)N(C)O)P(=O)(O)O)cc1 (configuration not stated): f
O=C(CCC(c1ccccc1)P(=O)(O)O)NO (configuration not stated): f
CN(O)C(=O)CCC(c1ccc(Cl)c(Cl)c1)P(=O)(O)O (configuration not stated): t
CN(O)C(=O)CSC(c1ccc(Cl)c(Cl)c1)P(=O)(O)O (racemic): t
CN(O)C(=O)CS[C@H](c1ccccc1)P(=O)(O)O: f
O=C(COC(c1ccccc1)P(=O)(O)O)NO (configuration not stated): f

INPUT: IC50 under 300 nM? Item: O=C(COC(c1ccc(F)c(F)c1)P(=O)(O)O)NO (configuration not stated)
OUTPUT: f

INPUT: For Cc1ccc(C(SCC(=O)N(C)O)P(=O)(O)O)cc1 (racemic) , is the recorded IC50 below the cut-off of 300 nM?
OUTPUT: t

INPUT: Regarding O=C(CCC(c1ccc(F)c(F)c1)P(=O)(O)O)NO (configuration not stated) , kindly confirm whether its IC50 is beneath 300 nM.
OUTPUT: f
